- EXPERIMENTAL PROTOCOL: CT900 plasma pharmacokinetics, noncompartmental analysis
- Assay type: in vivo, human
- CONDITION DESCRIPTION: human, plasma, iv, 2 mg/m2, C max, 2 mg/m^2 i.v., Cycle 1 Day 1; Range, N 4
QUANTITY: Cmax

Recorded Cmax (molecule `C#CCN(c1ccc(C(=O)N[C@@H](CCC(=O)N[C@H](CCC(=O)O)C(=O)O)C(=O)O)cc1)[C@H]1CCc2cc3nc(CO)[nH]c(=O)c3cc21` ): 613 to 855 ng/mL

----------
- EXPERIMENTAL PROTOCOL: CT900 plasma pharmacokinetics, noncompartmental analysis
- Type: in vivo, human
- CONDITION DESCRIPTION: human, plasma, iv, 12 mg/m2, AUC0-24, 12 mg/m^2 i.v., Cycle 1 Day 1; Range, N 5
QUANTITY: AUC(0-t)

Recorded AUC(0-t) (molecule `C#CCN(c1ccc(C(=O)N[C@@H](CCC(=O)N[C@H](CCC(=O)O)C(=O)O)C(=O)O)cc1)[C@H]1CCc2cc3nc(CO)[nH]c(=O)c3cc21` ): 42.3 to 58.6 µg·h/mL

----------
- EXPERIMENTAL PROTOCOL: CT900 plasma pharmacokinetics, noncompartmental analysis
- Assay type: in vivo, human
- CONDITION DESCRIPTION: human, plasma, iv, 12 mg/m2, AUC0-24, 12 mg/m^2 i.v., Cycle 1 Day 1; Mean, N 5
QUANTITY: AUC(0-t) (ng·h/mL)
Report only the number, with the unit ng·h/mL understood.

Recorded AUC(0-t) (compound `C#CCN(c1ccc(C(=O)N[C@@H](CCC(=O)N[C@H](CCC(=O)O)C(=O)O)C(=O)O)cc1)[C@H]1CCc2cc3nc(CO)[nH]c(=O)c3cc21` ): 47200

----------
- EXPERIMENTAL PROTOCOL: CT900 plasma pharmacokinetics, noncompartmental analysis
- Type: in vivo, human
- CONDITION DESCRIPTION: human, plasma, iv, 1 mg/m2, T max, 1 mg/m^2 i.v., Cycle 1 Day 1; Range, N 3
QUANTITY: Tmax (h)
Report only the number, with the unit h understood.

Recorded Tmax (compound `C#CCN(c1ccc(C(=O)N[C@@H](CCC(=O)N[C@H](CCC(=O)O)C(=O)O)C(=O)O)cc1)[C@H]1CCc2cc3nc(CO)[nH]c(=O)c3cc21` ): 1

----------
- EXPERIMENTAL PROTOCOL: CT900 plasma pharmacokinetics, noncompartmental analysis
- Assay type: in vivo, human
- CONDITION DESCRIPTION: human, plasma, iv, 2 mg/m2, AUC0-24, 2 mg/m^2 i.v., Cycle 1 Day 1; Range, N 4
QUANTITY: AUC(0-t)

Recorded AUC(0-t) (molecule `C#CCN(c1ccc(C(=O)N[C@@H](CCC(=O)N[C@H](CCC(=O)O)C(=O)O)C(=O)O)cc1)[C@H]1CCc2cc3nc(CO)[nH]c(=O)c3cc21` ): 2520 to 7590 ng·h/mL

----------
- EXPERIMENTAL PROTOCOL: CT900 plasma pharmacokinetics, noncompartmental analysis
- Assay type: in vivo, human
- CONDITION DESCRIPTION: human, plasma, iv, 2 mg/m2, T max, 2 mg/m^2 i.v., Cycle 1 Day 1; Range, N 4
QUANTITY: Tmax

Recorded Tmax (molecule `C#CCN(c1ccc(C(=O)N[C@@H](CCC(=O)N[C@H](CCC(=O)O)C(=O)O)C(=O)O)cc1)[C@H]1CCc2cc3nc(CO)[nH]c(=O)c3cc21` ): 30 to 66 min

src = paper PMC9623233
